# System: UO-31
# Measurement description: GI50 of drug in presence of dasatinib; higher = less potent
# Condition notes: treatment: drug + dasatinib (fixed dose, not stated); 5 days

>  <Molecule>
C[C@@H]1COC(Nc2ccc3ncnc(Nc4ccc(OCc5nccs5)c(Cl)c4)c3c2)=N1 + Cc1nc(Nc2ncc(C(=O)Nc3c(C)cccc3Cl)s2)cc(N2CCN(CCO)CC2)n1

>  <GI50 of drug>
> 10 µM

$$$$
>  <Molecule>
Cc1cc(C)c(/C=C2\C(=O)Nc3ccccc32)[nH]1 [Semaxanib (SU5416)] + Cc1nc(Nc2ncc(C(=O)Nc3c(C)cccc3Cl)s2)cc(N2CCN(CCO)CC2)n1

>  <GI50 of drug>
> 10 µM

$$$$
>  <Molecule>
CN1C(=O)C(Cc2c[nH]c3ccccc23)NC1=S (stereo not drawn) [Necrostatin-1] + Cc1nc(Nc2ncc(C(=O)Nc3c(C)cccc3Cl)s2)cc(N2CCN(CCO)CC2)n1

>  <GI50 of drug>
> 10 µM

$$$$

----------
Each entry below carries its reported minimum viability across doses.
# Tested on: CAKI-1
# Measurement description: minimum viability across doses, drug alone, relative to DMSO (fraction); higher = less growth inhibition
# Condition notes: treatment: drug alone; 5 days

>  <Compound>
Cc1c(NC(=O)OC[C@@H]2COCCN2)cn2ncnc(Nc3ccc4c(cnn4Cc4cccc(F)c4)c3)c12.Cl

>  <minimum viability across doses>
0.573

$$$$
>  <Compound>
Cc1cc(C(=O)NOCCO)c(Nc2ccc(I)cc2F)n(C)c1=O [AZD8330]

>  <minimum viability across doses>
0.209

$$$$
>  <Compound>
COC[C@H]1OC(=O)c2coc3c2[C@@]1(C)C1=C(C3=O)[C@@H]2CCC(=O)[C@@]2(C)C[C@@H]1OC(C)=O [Wortmannin]

>  <minimum viability across doses>
0.301

$$$$

----------
# Tested on: UO-31
# Measurement description: GI50, drug alone; higher = less potent
# Condition notes: treatment: drug alone; 5 days
Readout: GI50, drug alone (µM)

>  <Compound>
Br.Cc1ccc(C(=O)Cn2c3c(sc2=N)CCCC3)cc1

>  <Comparison sign>
>

>  <Measured result>
10

$$$$
>  <Compound>
Cn1cnc(N)c2ncnc1-2

>  <Comparison sign>
>

>  <Measured result>
10

$$$$
>  <Compound>
C=CC(=O)Nc1cccc(Oc2nc(Nc3ccc(N4CCN(C)CC4)cc3)ncc2Cl)c1

>  <Comparison sign>
=

>  <Measured result>
2.6

$$$$
>  <Compound>
COc1ncc(-c2ccc3nccc(-c4ccnnc4)c3c2)cc1NS(=O)(=O)c1ccc(F)cc1F

>  <Comparison sign>
=

>  <Measured result>
0.092

$$$$
>  <Compound>
Cc1cc2c(F)c(Oc3ncnn4cc(OC[C@@H](C)OC(=O)[C@H](C)N)c(C)c34)ccc2[nH]1

>  <Comparison sign>
=

>  <Measured result>
9.72

$$$$
>  <Compound>
Nc1nc(Nc2ccc(S(N)(=O)=O)cc2)nn1C(=O)c1c(F)cccc1F

>  <Comparison sign>
=

>  <Measured result>
2.8

$$$$
>  <Compound>
CNC(=O)c1cc(COc2nnc(Nc3ccc(Cl)cc3)c3ccoc23)ccn1

>  <Comparison sign>
>

>  <Measured result>
10

$$$$
>  <Compound>
CC(C)c1ccccc1Cc1cc(C(=O)Nc2ccc(S(=O)(=O)c3ccccc3C(C)(C)C)cc2)c(O)c(O)c1O

>  <Comparison sign>
=

>  <Measured result>
8.46

$$$$
>  <Compound>
O=C1NC(=O)/C(=C/c2ccc3c(c2)OC(F)(F)O3)S1

>  <Comparison sign>
>

>  <Measured result>
10

$$$$
>  <Compound>
CN(C)Cc1cccc(N/C(=C2\C(=O)Nc3cc(C(=O)N(C)C)ccc32)c2ccccc2)c1

>  <Comparison sign>
=

>  <Measured result>
9.91

$$$$
>  <Compound>
CCOc1cc2ncc(C#N)c(Nc3ccc(OCc4ccccn4)c(Cl)c3)c2cc1NC(=O)/C=C/CN(C)C

>  <Comparison sign>
>

>  <Measured result>
10

$$$$
>  <Compound>
COc1cc(Nc2c(C#N)cnc3cc(OCCCN4CCN(C)CC4)c(OC)cc23)c(Cl)cc1Cl [Bosutinib (SKI-606)]

>  <Comparison sign>
>

>  <Measured result>
10

$$$$
>  <Compound>
Cc1nc(NC(=O)N2CCC[C@H]2C(N)=O)sc1-c1ccnc(C(C)(C)C(F)(F)F)c1

>  <Comparison sign>
>

>  <Measured result>
10

$$$$
>  <Compound>
Nc1cccc2c1C(=O)N(C1CCC(=O)NC1=O)C2=O (stereo not drawn) [Pomalidomide]

>  <Comparison sign>
>

>  <Measured result>
10

$$$$
>  <Compound>
Cc1ccc(NC(=O)c2ccc(CN3CCN(C)CC3)cc2)cc1Nc1nc(-c2cccnc2)cs1

>  <Comparison sign>
>

>  <Measured result>
10

$$$$
>  <Compound>
CNC(=O)c1nn(C)c2c1C(C)(C)Cc1cnc(Nc3ccc(N4CCN(C)CC4)cc3)nc1-2

>  <Comparison sign>
=

>  <Measured result>
1.33

$$$$
>  <Compound>
C#Cc1cccc(Nc2ncnc3cc(OCCOC)c(OCCOC)cc23)c1.Cl [Erlotinib HCl]

>  <Comparison sign>
>

>  <Measured result>
10

$$$$
>  <Compound>
O=C(Nc1ccc(OC(F)(F)F)cc1)c1sccc1NCc1ccnc2ccccc12

>  <Comparison sign>
=

>  <Measured result>
1.35

$$$$
>  <Compound>
CC[C@H](CO)Nc1nc(NCc2ccccc2)c2ncn(C(C)C)c2n1 [Roscovitine (Seliciclib, CYC202)]

>  <Comparison sign>
>

>  <Measured result>
10

$$$$
>  <Compound>
CC(C)(O)CC(=O)NCCn1ccc2ncnc(Nc3ccc(Oc4cccc(C(F)(F)F)c4)c(Cl)c3)c21

>  <Comparison sign>
>

>  <Measured result>
10

$$$$
>  <Compound>
COc1cccc2cc(-c3nc([C@H]4CC[C@H](C(=O)O)CC4)n4ncnc(N)c34)[nH]c12

>  <Comparison sign>
=

>  <Measured result>
2.52

$$$$
>  <Compound>
CCC[C@H](NC(=O)/C(C#N)=C/c1cccc(Br)n1)c1ccccc1

>  <Comparison sign>
=

>  <Measured result>
8.04

$$$$
>  <Compound>
O=C(NOCC(O)CO)c1cc(Br)c(F)c(F)c1Nc1ccc(I)cc1F (stereo not drawn)

>  <Comparison sign>
>

>  <Measured result>
10

$$$$

----------
# Test system: CAKI-1
# Measurement description: GI50, drug alone; higher = less potent
# Condition notes: treatment: drug alone; 5 days
Readout: GI50, drug alone (µM)

>  <Molecule>
N#CC[C@H](C1CCCC1)n1cc(-c2ncnc3[nH]ccc23)cn1

>  <Units text>
µM

>  <Comparison sign>
>

>  <Measured result>
10

$$$$
>  <Molecule>
CCC[C@H](NC(=O)/C(C#N)=C/c1cccc(Br)n1)c1ccccc1 [WP1130]

>  <Units text>
µM

>  <Comparison sign>
=

>  <Measured result>
4.52

$$$$
>  <Molecule>
C=CC(=O)Nc1ccc2ncnc(Nc3ccc(OCc4cccc(F)c4)c(Cl)c3)c2c1.Cc1ccc(S(=O)(=O)O)cc1 [AST-1306]

>  <Units text>
µM

>  <Comparison sign>
=

>  <Measured result>
3.35

$$$$
>  <Molecule>
O=C(O)c1ccc2c(c1)nc(Nc1cccc(Cl)c1)c1ccncc12 [cx-4945 (Silmitasertib)]

>  <Units text>
µM

>  <Comparison sign>
=

>  <Measured result>
3.97

$$$$

----------
# System: 769-P
# Measurement description: GI50, drug alone; higher = less potent
# Condition notes: treatment: drug alone; 5 days
Readout: GI50, drug alone

>  <Compound>
CCCCCCCCCCCCc1ccc(S(=O)(=O)Nc2nncs2)cc1 [PHT-427]

>  <Measured result>
> 10 µM

$$$$
>  <Compound>
COc1cc2nccc(Oc3ccc(NC(=O)Nc4ccc(F)cc4F)c(F)c3)c2cc1OC [Ki8751]

>  <Measured result>
> 10 µM

$$$$
>  <Compound>
OCCn1cc(-c2ccc3c(c2)CC/C3=N\O)c(-c2ccncc2)n1 [GDC-0879]

>  <Measured result>
> 10 µM

$$$$

----------
# System: 769-P
# Measurement description: minimum viability across doses, drug alone, relative to DMSO (fraction); higher = less growth inhibition
# Condition notes: treatment: drug alone; 5 days
// NB: equality with 0.1 counts as false; only minimum viability across doses strictly below is true

>  <Compound>
Cc1cc2c(C(C)C)c(O)c(O)c(C=O)c2c(O)c1-c1c(C)cc2c(C(C)C)c(O)c(O)c(C=O)c2c1O [AT101]

>  <Category label>
false

$$$$
>  <Compound>
COc1cccc2cc(-c3nc([C@H]4CC[C@H](C(=O)O)CC4)n4ncnc(N)c34)[nH]c12 [OSI-027]

>  <Category label>
false

$$$$
>  <Compound>
FC(F)(F)c1ccc(/C=C/c2nc(COc3ccc(CCCCn4ccnn4)cc3)co2)cc1 [Mubritinib (TAK 165)]

>  <Category label>
false

$$$$
>  <Compound>
Cc1nc(NC(=O)N2CCC[C@H]2C(N)=O)sc1-c1ccnc(C(C)(C)C(F)(F)F)c1 [BYL719]

>  <Category label>
false

$$$$
>  <Compound>
CN(C[C@@H]1COCCO1)S(=O)(=O)Nc1ccc2ccc3ncc(-c4cnn(C)c4)cc3c(=O)c2c1 [MK-2461]

>  <Category label>
false

$$$$
>  <Compound>
O=C1NC(=O)C(c2ccccc2[N+](=O)[O-])=C1Nc1ccc(O)c(Cl)c1

>  <Category label>
false

$$$$
>  <Compound>
CCN1CCN(Cc2ccc(-c3cc4c(N[C@H](C)c5ccccc5)ncnc4[nH]3)cc2)CC1 [AEE788 (NVP-AEE788)]

>  <Category label>
true

$$$$
>  <Compound>
CCOc1cc2ncc(C#N)c(Nc3ccc(F)c(Cl)c3)c2cc1NC(=O)/C=C/CN(C)C [Pelitinib (EKB-569)]

>  <Category label>
true

$$$$
>  <Compound>
C=CC(=O)Nc1cccc(Oc2nc(Nc3ccc(N4CCN(C)CC4)cc3)ncc2Cl)c1 [WZ3146]

>  <Category label>
false

$$$$
>  <Compound>
CC(C)(C)c1cc(NC(=O)Nc2ccc(-c3cn4c(n3)sc3cc(OCCN5CCOCC5)ccc34)cc2)no1 [Quizartinib (AC220)]

>  <Category label>
false

$$$$
>  <Compound>
C[C@@H](N)[C@H]1CC[C@H](C(=O)Nc2ccncc2)CC1.Cl.Cl

>  <Category label>
false

$$$$
>  <Compound>
O=C(Nc1cc(C(F)(F)F)cc(C(F)(F)F)c1)c1cc(Cl)ccc1O [IMD 0354]

>  <Category label>
true

$$$$
>  <Compound>
CNC(=O)c1nn(C)c2c1C(C)(C)Cc1cnc(Nc3ccc(N4CCN(C)CC4)cc3)nc1-2

>  <Category label>
true

$$$$
